System: Staphylococcus aureus ATCC 43300 (MRSA)
Assay type: cell-based
Settings: ATCC 43300
Ends that are not written are not given here.
VALUE TYPE: MIC (µg/mL)

IRRRIRRIRRRIRRIRRRIRR [SEQ ID NO: 3] :: 8
IRRRRRRIRRRRRR [SEQ ID NO: 2] :: 16
IRRIIRRIRRIIRRIRRIIRR [SEQ ID NO: 4] :: 4
VVRVVRVVVRVVRVVVRVVRV [SEQ ID NO: 8] :: 32
RRWVRRVRRVWRRVVRVVRRWVRR-NH2 (C-terminus assumed) [SEQ ID NO: 1] :: 4

1: VWRWVRRVWRWVRRVWRWVRR [SEQ ID NO: 5]
2: VWRWVRRVWRWVRR [SEQ ID NO: 6]
**Query** Between 1 and 2 , which one shows the larger MIC value? Respond with the label that goes with your answer.
**Result** 1
(1: 8 µg/mL, 2: 0.5 µg/mL)

Attribution: patent US20220249599A1
